Values compiled from the supplement of paper PMC10567573.

B1: SNAP91 (parent)
chain: FGGSFMAPSPSPVTPAQNNLLQPN

Variants of: B1
EXPERIMENT SUMMARY: protein stability index of a GFP-peptide fusion (GPS, HEK-293T) (PSI 1-6); higher = more stable;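 also: lentivirally expressed fusions sorted by FACS into six bins by GFP to DsRed ratio, PSI derived from sequencing read proportions per bin multiplied by bin number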
CONDITION PARAMETERS: c terminus: a fixed tail appended
OUTCOME MEASURE: protein stability index

INSERT INTO measurements (variant_label, number) VALUES
  ('S11K', 1.98),
  ('P12C', 2.72),
  ('P8Q', 2.92),
  ('P15W', 1.6),
  ('P8E', 2.24),
  ('P15I', 2.65),
  ('P8D', 2.25),
  ('P10H', 2.52),
  ('M6R', 2.24),
  ('S11L', 2.84),
  ('T14W', 1.95),
  ('P12S', 1.27),
  ('T14Q', 2.43),
  ('P15V', 2.12),
  ('M6V', 2.08),
  ('P8S', 2.89),
  ('P10S', 2.49),
  ('A7D', 1.91),
  ('P10V', 1.58),
  ('P12D', 1.8),
  ('P12Y', 2.09),
  ('P10L', 2.55),
  ('P10R', 1.13),
  ('P15C', 4.08),
  ('G2R', 3.23),
  ('G3V', 2.37),
  ('P15E', 1.93),
  ('P10N', 1.51),
  ('T14F', 1.79),
  ('T14D', 1.29),
  ('P15Q', 2.27),
  ('P15A', 1.86),
  ('P15Y', 2.91),
  ('T14M', 2.4),
  ('A7V', 2.54),
  ('T14C', 4.16),
  ('S11V', 3.42),
  ('P12W', 1.83),
  ('P15G', 2.3),
  ('P10W', 2.51),
  ('S11E', 2.38),
  ('P8R', 1.85),
  ('L21R', 2.88),
  ('T14N', 1.89),
  ('F5I', 4.03),
  ('P8A', 1.54),
  ('P8C', 1.64),
  ('A7E', 2.06),
  ('P10Q', 2.7),
  ('S9V', 1.62),
  ('P8H', 2),
  ('P10Y', 2.38),
  ('P12R', 2.17),
  ('T14V', 2.2),
  ('P15F', 2.84),
  ('P12H', 2.53),
  ('P10C', 2.45),
  ('P8T', 3.12),
  ('T14I', 1.7),
  ('P15M', 3.65),
  ('P15H', 2.27),
  ('P8V', 2.41);
